The values you see were collected from ChEMBL document CHEMBL4627371.

Listing of entries alongside the reported IC50.
# Test target: Heat shock protein HSP90 (Homo sapiens, UniProt P07900+P08238)
# Experiment summary: Inhibition of HSP90 (unknown origin) assessed as HER2 degradation by cell-based assay
Answer in nM, number only, no unit symbol.

# Smiles notation, IC50 / nM
rows = [
    ("CCNC(=O)c1noc(-c2cc(C(C)C)c(O)cc2O)c1-c1cc[nH]n1", 45),
    ("CCNC(=O)c1noc(-c2cc(C(C)C)c(O)cc2O)c1-c1cc(C(=O)N2CCOCC2)no1", 52),
    ("CCNC(=O)c1noc(-c2cc(C(C)C)c(O)cc2O)c1-c1cc(CNC(=O)CC)no1", 50),
    ("CCNC(=O)c1noc(-c2cc(C(C)C)c(O)cc2O)c1-c1cc(CN(CC)CC)no1", 52),
    ("CCNC(=O)c1noc(-c2cc(C(C)C)c(O)cc2O)c1-c1cc(CNC(C)=O)no1", 71),
    ("CCNC(=O)c1noc(-c2cc(C(C)C)c(O)cc2O)c1-c1cc(CN2CCCCC2)no1", 62),
    ("CCNC(=O)c1noc(-c2cc(C(C)C)c(O)cc2O)c1-c1cc(C(N)=O)no1", 52),
    ("CCCN(CCC)Cc1cc(-c2c(C(=O)NCC)noc2-c2cc(C(C)C)c(O)cc2O)on1", 117),
    ("CCNCc1cc(-c2c(C(=O)NCC)noc2-c2cc(C(C)C)c(O)cc2O)on1", 23),
    ("CCNC(=O)c1noc(-c2cc(C(C)C)c(O)cc2O)c1-c1cc(CN2CCSCC2)no1", 38),
]

Query: IC50; subject: CCNC(=O)c1noc(-c2cc(C(C)C)c(O)cc2O)c1-c1cc(CN2CCOCC2)no1
50

Would you kindly share the measured IC50 for CCNC(=O)c1noc(-c2cc(C(C)C)c(O)cc2O)c1-c1ccn(C)n1 ?
16

Please report the recorded IC50 for CCNC(=O)c1cc(-c2c(C(=O)NCC)noc2-c2cc(C(C)C)c(O)cc2O)on1 .
28

For the compound shown here, CCCn1ccc(-c2c(C(=O)NCC)noc2-c2cc(C(C)C)c(O)cc2O)n1 , give the reported IC50.
24

Param item = CCNC(=O)c1noc(-c2cc(C(C)C)c(O)cc2O)c1-c1cnn(C(C)C)c1 ; retrieve measured IC50.
19

Recorded IC50 for CCNC(=O)c1noc(-c2cc(C(C)C)c(O)cc2O)c1-c1cc(CN2CCCC2)no1 , please?
38

Which IC50 value belongs to CCCNCc1cc(-c2c(C(=O)NCC)noc2-c2cc(C(C)C)c(O)cc2O)on1 ?
24

Name the reported IC50 value associated with the compound C=CCNCc1cc(-c2c(C(=O)NCC)noc2-c2cc(C(C)C)c(O)cc2O)on1
67

Would you kindly share the measured IC50 for CCNC(=O)c1noc(-c2cc(C(C)C)c(O)cc2O)c1-c1cnn(CC)c1 ?
13

If you can, please state the reported IC50 value of CCNC(=O)c1noc(-c2cc(C(C)C)c(O)cc2O)c1-c1cc(CNC(C)C)no1 .
18
